molecular target: Catechol O-methyltransferase (Homo sapiens) (UniProt P21964); experiment: Confirmatory Screen for Target Class Profiling of Small Molecule Inhibitors of Methyltransferases (AID 1745852); conditions: MTase-Glo luminescence, SAH detection, recombinant enzyme; measured here: COMT max response; stronger effect = lower value
Sequence (P21964 whole entry, looked up): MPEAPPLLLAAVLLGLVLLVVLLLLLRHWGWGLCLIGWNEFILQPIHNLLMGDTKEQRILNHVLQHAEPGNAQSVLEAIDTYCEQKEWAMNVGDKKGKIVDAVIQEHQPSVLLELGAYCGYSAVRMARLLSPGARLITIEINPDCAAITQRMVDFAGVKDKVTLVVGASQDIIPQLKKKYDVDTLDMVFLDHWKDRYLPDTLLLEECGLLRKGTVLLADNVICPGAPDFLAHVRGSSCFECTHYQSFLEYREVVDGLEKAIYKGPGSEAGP
activity overview
Your answer should be a plain number; it is taken to be in %.

Task: Report activity for "CC(C)(O)c1ccccc1CC[C@@H](SCC1(CC(=O)O)CC1)c1cccc(/C=C/c2ccc3ccc(Cl)cc3n2)c1" please.
Output: -3.13

Task: Need activity of CN1CCN(C2Cc3ccccc3Sc3ccc(Cl)cc32)CC1 (stereo not drawn) , thanks.
Output: 14.6

Task: Please look up its activity: Cc1cc(C(C#N)c2ccc(Cl)cc2)c(Cl)cc1NC(=O)c1cc(I)cc(I)c1O (stereo not drawn)
Output: -21.3

Task: Entry "C[C@]12CC[C@@H]3c4ccc(O)cc4CC[C@H]3[C@@H]1CCC2=O" : reported activity = ?
Output: -21.5

Task: Given the compound "Cc1cc(N)c2ccccc2[n+]1CCCCCCCCCC[n+]1c(C)cc(N)c2ccccc21" , what is its reported activity?
Output: 2.05

---
Task: Item under review: "COc1ccc(Cl)cc1C(=O)NCCc1ccc(S(=O)(=O)NC(=O)NC2CCCCC2)cc1" . Reported activity?
Output: -8.62

Task: Find the recorded activity belonging to "CC(C)(C)[C@]1(O)CCN2C[C@H]3c4ccccc4CCc4cccc(c43)[C@@H]2C1" and report it.
Output: -2.14

Task: Give its activity value. Item: "Cc1ccc2nc(N)[nH]c(=O)c2c1Sc1ccncc1"
Output: -5.5

----------
assay: Cell Viability - LYMP1-002 - Assay at 40 hr (AID 994); conditions: LYMP1-002 lymphoblastoid cell viability; series mostly up to 92.2 µM; note: nearly all actives have a fitted effect of over 60% in size
Inconclusive results are not listed. Activity calls are given as the source filed them. Calls follow the shape of the dose curve; as a rule, active = well fitted cell-killing curve with a large enough effect; inconclusive = small, poorly fitted or top-dose-only effect; inactive = flat fitted curve, though single readings scatter.
Field 'call' accepts class 1 for active, class 0 for inactive

A selection of reference data follows.
Task: # lookup: test call for "NCCNCCNCCNCCN"
Output: class 0

Task: Give the logged outcome of this assay for the following compound: "O=C1O[C@H]([C@@H](O)CO)C(O)=C1O"
Output: class 0

Task: Record request — test call for "CC1(C)[C@@H]2CC[C@@]1(C)C(=O)C2"
Output: class 0

New cases:
Task: Please let me know the test result on file for "CCCCCCCCCCCCOS(=O)(=O)O" .
Output: class 0

Task: Just curious, what result did "COc1ccccc1O" get here?
Output: class 0

Task: Assay result, entry "NC(=O)c1ncn([C@@H]2O[C@H](CO)[C@@H](O)[C@H]2O)n1" — outcome?
Output: class 0

Task: Assay outcome for "CCCCOC(=O)c1ccc(O)cc1" : what was it?
Output: class 0

Task: Query: recorded result category for "Cc1cc(CC(=O)O)n(C)c1C(=O)c1ccc(Cl)cc1" in this test
Output: class 0

Task: Check the results log: what was the call for "[Cl][In]([Cl])[Cl]" ?
Output: class 0

Task: Short answer needed: outcome of this test for "C[C@]12C[C@H](O)[C@H]3[C@@H](CCC4=CC(=O)CC[C@@]43C)[C@@H]1CC[C@@H]2C(=O)CO" ?
Output: class 0

Task: Write down the call the test reported for this compound. Item: "Oc1cccc(O)c1"
Output: class 0

Task: Hello, I am checking results. What call was entered for "CC12CCC(CC1)C(C)(C)O2" ?
Output: class 0

Task: # outcome recorded in this test, key = "Cc1c(O)cccc1C(=O)N[C@@H](CSc1ccccc1)[C@H](O)CN1C[C@H]2CCCC[C@H]2C[C@H]1C(=O)NC(C)(C)C"
Output: class 1

----------
assay: qHTS of pediatric cancer cell lines to identify multiple opportunities for drug repurposing: Primary screen for OHS-50 cells (AID 1347103); settings: OHS-50 osteosarcoma viability, CellTiter-Glo luminescence, 48 h; series mostly up to 57.3 µM; note: nearly all actives have a fitted effect of over 40% in size
Records with an inconclusive call do not appear. The source made the active and inactive calls. Calls come from the whole dose curve; as a rule, active = well fitted cell-killing curve with a large enough effect; inconclusive = small, poorly fitted or top-dose-only effect; inactive = no such curve, though single readings can be large or run the other way.
Use one of these outcomes when replying: active, inactive

For orientation, consider the following solved cases.
Task: Dear colleague, could you share the recorded outcome for NS(=O)(=O)c1cc2c(cc1C(F)(F)F)NC(Cc1ccccc1)NS2(=O)=O (stereo unspecified) when you have a moment?
Output: inactive

Task: // param item: "CCCCCCCCCCCCOS(=O)(=O)O" ; yields the recorded call
Output: inactive

Task: How was "NC1CCN(c2cccc(Cl)n2)CC1" classified in this test?
Output: inactive

Task: What is the recorded call for this compound in the test? CC(C)(C)C(=O)C(Oc1ccc(Cl)cc1)n1ccnc1 (stereo unspecified)
Output: inactive

Task: I'd appreciate the recorded outcome for "NC(=O)NNc1ccccc1" from this test.
Output: inactive

Task: Give the logged outcome of this assay for the following compound: "CC(=O)Oc1ccc(C2(c3ccc(OC(C)=O)cc3)C(=O)Nc3ccccc32)cc1"
Output: active

Task: Which outcome was assigned to "C[C@@H]1CCN(C(=O)[C@H](CCCN=C(N)N)NS(=O)(=O)c2cccc3c2NC[C@H](C)C3)[C@@H](C(=O)O)C1" in this test?
Output: inactive

Task: // outcome(item) with item = "CC(=O)Oc1c(C)c(C)c2c(c1C)CC[C@@](C)(CCC[C@H](C)CCC[C@H](C)CCCC(C)C)O2"
Output: inactive

Others:
Task: Query: recorded result category for "O=C(O)[C@@H]1CSCN1" in this test
Output: inactive

Task: So what was the verdict on "CC[N+](CC)(CC)CCOc1ccc(/C=C/c2ccccc2)cc1" in this test?
Output: active

Task: Recorded test call requested for "O=C1O[C@H]([C@@H](O)CO)C(O)=C1O"
Output: inactive

----------
assay: qHTS Assay for Identifying Gametocytocidal Compounds (AID 743244);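 note: % is set by controls: 0 for no effect and ±100 for the full control effect; actives lower the fluorescent signal which means gametocytes are killed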; conditions: P. falciparum 3D7 stage III-V gametocytes, alamarBlue, 72 h; stronger effect = lower value
Records with an inconclusive call do not appear.
We begin with a simple list: items and their reported max response.
Response body: numeric value in %, unit text excluded.

Examples with answers:
Task: Please give the measured max response for this compound: "Nc1nc2c(ncn2CCC(CO)CO)c(=O)[nH]1"
Output: -1.67

Task: Recorded max response of "CC(=O)c1ccc2c(c1)N(CCCN(C)C)c1ccccc1S2" , please.
Output: -10.5

Task: What does the data say about its max response? Entry: OCC(O)CN1CCN(c2ccccc2)CC1 (centres undefined)
Output: -0.192

Further cases:
Task: Name the reported max response value associated with the compound "C[C@H]1O[C@H](O[C@H]2[C@H](O)[C@@H](O)[C@@H](O[C@H]3[C@H](O)[C@@H](O)[C@H](O)O[C@@H]3CO)O[C@@H]2CO)[C@H](O)[C@@H](O)[C@@H]1N[C@H]1C=C(CO)[C@@H](O)[C@H](O)[C@H]1O"
Output: 2.05

Task: Endpoint output: max response of "CCCCN1CCCC[C@H]1C(=O)Nc1c(C)cccc1C" . Value?
Output: 12.1

Task: Query: max response; subject: "CCC(=O)c1ccc(O)cc1"
Output: -0.113

----------
experiment: qHTS of pediatric cancer cell lines to identify multiple opportunities for drug repurposing: Primary screen for NB-EBc1 cells (AID 1347095); details: NB-EBc1 neuroblastoma viability, CellTiter-Glo luminescence, 48 h; series mostly up to 46 µM;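 note: plate controls were DMSO neutral control for no effect and bortezomib for full effect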
Results filed as inconclusive are left out. Calls of active or inactive are those of the source. Calls follow the shape of the dose curve; as a rule, active = well fitted cell-killing curve with a large enough effect; inconclusive = small, poorly fitted or top-dose-only effect; inactive = no such curve, though single readings can be large or run the other way.
measurementName: activity change, negative = cytotoxic

Task: // query activity change, negative = cytotoxic value for entry "CC1(C)CO[C@@H](CC(=O)O)CN1"
Output: inactive

Task: Give its activity change, negative = cytotoxic value. Item: "CCN(CC)CCNC(=O)c1cc(Cl)c(N)cc1OC"
Output: inactive

Task: # lookup: activity change, negative = cytotoxic of "C[C@@H]1CC[C@@]2(OC1)O[C@H]1C[C@H]3[C@@H]4CC[C@H]5C[C@@H](O)CC[C@]5(C)[C@H]4CC(=O)[C@]3(C)[C@H]1[C@@H]2C"
Output: 21.8% [at 4.84 µM] (inactive)

Task: GET /values?readout=activity change, negative = cytotoxic&item= "CS(=O)(=O)c1ccc([C@@H](O)[C@@H](CF)NC(=O)C(Cl)Cl)cc1"
Output: inactive

Further cases:
Task: Could you tell me which activity change, negative = cytotoxic is on file for "CCCCCCCCCCCCOS(=O)(=O)O" ?
Output: inactive

Task: Which value of activity change, negative = cytotoxic has been reported for NS(=O)(=O)c1cc2c(cc1C(F)(F)F)NC(Cc1ccccc1)NS2(=O)=O (stereo unspecified) in the records?
Output: inactive

Task: activity change, negative = cytotoxic for "CN1CCC[C@@H]1Cc1c[nH]c2ccc(CCS(=O)(=O)c3ccccc3)cc12" ?
Output: inactive

Task: Could you share which activity change, negative = cytotoxic value was measured for "C/C(=C(\CCOP(=O)(O)O)SC(=O)c1ccccc1)N(C=O)Cc1cnc(C)nc1N" ?
Output: 16.5% [at 4.84 µM] (inactive)

Task: Please give the measured activity change, negative = cytotoxic for this molecule: "CCOc1nc2cccc(C(=O)O)c2n1Cc1ccc(-c2ccccc2-c2nn[nH]n2)cc1"
Output: inactive

Task: # input molecule: "CCn1cc(C(=O)O)c(=O)c2cnc(N3CCNCC3)nc21" ; wanted: its activity change, negative = cytotoxic
Output: inactive

Task: May I ask what activity change, negative = cytotoxic has been recorded for "CN(C)CCN(Cc1ccccc1)c1ccccn1" ?
Output: inactive
